Cited source: patent US11746110B2

experimental system: Ret (Homo sapiens (Human))
Sequence (P07949 29-1114): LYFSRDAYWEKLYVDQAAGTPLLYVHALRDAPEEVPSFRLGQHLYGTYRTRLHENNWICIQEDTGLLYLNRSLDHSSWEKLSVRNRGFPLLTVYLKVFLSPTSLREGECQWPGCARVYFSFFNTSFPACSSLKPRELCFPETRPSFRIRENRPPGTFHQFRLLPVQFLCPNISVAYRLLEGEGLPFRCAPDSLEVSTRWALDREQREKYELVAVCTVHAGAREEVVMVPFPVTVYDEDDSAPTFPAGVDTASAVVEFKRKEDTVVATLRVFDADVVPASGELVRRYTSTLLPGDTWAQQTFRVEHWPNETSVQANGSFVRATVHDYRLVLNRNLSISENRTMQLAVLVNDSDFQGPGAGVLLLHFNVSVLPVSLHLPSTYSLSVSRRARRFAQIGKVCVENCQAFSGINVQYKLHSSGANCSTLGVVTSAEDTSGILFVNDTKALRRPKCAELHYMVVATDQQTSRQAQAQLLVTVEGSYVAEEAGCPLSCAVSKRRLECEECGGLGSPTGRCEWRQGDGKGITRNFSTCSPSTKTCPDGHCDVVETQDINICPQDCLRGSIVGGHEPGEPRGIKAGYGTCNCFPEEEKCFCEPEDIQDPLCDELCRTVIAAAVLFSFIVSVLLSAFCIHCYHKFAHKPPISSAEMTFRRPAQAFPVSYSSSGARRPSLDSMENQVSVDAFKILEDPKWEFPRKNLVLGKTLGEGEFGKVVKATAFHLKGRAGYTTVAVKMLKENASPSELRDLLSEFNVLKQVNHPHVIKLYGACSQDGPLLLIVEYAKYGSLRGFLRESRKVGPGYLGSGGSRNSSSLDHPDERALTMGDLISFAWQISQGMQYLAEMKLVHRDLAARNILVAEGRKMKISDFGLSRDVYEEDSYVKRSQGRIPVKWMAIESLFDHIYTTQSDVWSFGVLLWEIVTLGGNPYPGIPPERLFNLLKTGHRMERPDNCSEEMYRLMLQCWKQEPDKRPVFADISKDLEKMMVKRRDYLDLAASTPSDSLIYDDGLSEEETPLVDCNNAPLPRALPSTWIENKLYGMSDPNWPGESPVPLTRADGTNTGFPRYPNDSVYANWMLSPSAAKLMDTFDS
quantity measured: IC50 (nM)

>>> test_value("Cc1ccc(C(=O)Nc2cccc(C(F)(F)F)c2)cc1C#Cc1cnc2c(Nc3cnn(C)c3)nccn12 [Example 2]")
0.32

(I) Cc1ccc(C(=O)Nc2ccc(CN3CCN(C)CC3)c(C(F)(F)F)c2)cc1C#Cc1cnc2c(Nc3cnn(C)c3)ccnn12 [Example 15]
(II) Cc1ccc(NC(=O)c2ccnc(C(F)(F)F)c2)cc1C#Cc1cnc2c(Nc3cnn(C)c3)nccn12 [Example 3]
Which of the two items, I and II , has the greater recorded IC50? Lab note: record the label of whichever item you select. I

====

Test system: Ba/F3 KIF5B-RET cells
test: Cell proliferation analysis, Ba/F3 KIF5B-RET
Assay type: cell-based
recorded conditions: Mus musculus, BaF3, 72 h; 3 days, CellTiter-Glo
quantity measured: IC50 (nM)

>>> test_value("Cc1ccc(C(=O)Nc2ccc(CN3CCN(C)CC3)c(C(F)(F)F)c2)cc1C#Cc1cnc2c(Nc3cnn(C)c3)ccnn12")
4.56

(P) Cc1ccc(NC(=O)c2ccnc(C(F)(F)F)c2)cc1C#Cc1cnc2c(Nc3cnn(C)c3)nccn12
(Q) Cc1ccc(C(=O)Nc2cccc(C(F)(F)F)c2)cc1C#Cc1cnc2c(Nc3cnn(C)c3)nccn12
(R) Cc1ccc(NC(=O)c2cccc(C(F)(F)F)c2)cc1C#Cc1cnc2c(Nc3cnn(C)c3)nccn12
(S) Cc1ccc(C(=O)Nc2cccc(C(F)(F)F)c2)cc1C#Cc1cnc2c(Nc3cnn(C)c3)ccnn12
Arrange by IC50, high to low. Please write the labels in the order that was asked for. P, S, R, Q
(P: 26.4 nM, S: 15.8 nM, R: 10.1 nM, Q: 6.02 nM)

====

experimental system: ABL^T315I (Homo sapiens (Human), UniProt P00519, T315I)
test: Biochemical kinase analysis, ABL T315I
recorded conditions: kinase inhibition assay
quantity measured: IC50 (nM)

>>> test_value("Cc1cn(-c2cc(C(=O)Nc3ccc(C)c(C#Cc4cnc5c(Nc6cnn(C)c6)nccn45)c3)cc(C(F)(F)F)c2)cn1 [Example 4]")
7.69

(1) Cc1ccc(NC(=O)c2cc(C(C)(C)C)on2)cc1C#Cc1cnc2c(Nc3cnn(C)c3)nccn12 [Example 6]
(2) Cc1ccc(NC(=O)c2ccnc(C(F)(F)F)c2)cc1C#Cc1cnc2c(Nc3cnn(C)c3)nccn12 [Example 3]
Would you kindly point out which of 1 and 2 has the smaller IC50 figure? Lab note: record the label of whichever item you select. 2

(P) Cc1ccc(NC(=O)c2cccc(C(F)(F)F)c2)cc1C#Cc1cnc2c(Nc3cnn(C)c3)nccn12 [Example 1]
(Q) Cc1ccc(NC(=O)c2ccc(C)c(C(F)(F)F)c2)cc1C#Cc1cnc2c(Nc3cnn(C)c3)ccnn12 [Example 13]
Would you kindly point out which of P and Q has the smaller IC50 figure? Lab note: record the label of whichever item you select. P
(P: 9.05 nM, Q: 67.2 nM)

(P) COCCn1cc(Nc2nccn3c(C#Cc4cc(NC(=O)c5ccnc(C(F)(F)F)c5)ccc4C)cnc23)cn1 [Example 9]
(Q) Cc1ccc(NC(=O)c2ccc(CN3CCN(C)CC3)c(C(F)(F)F)c2)cc1C#Cc1cnc2c(Nc3cnn(C)c3)nccn12 [Example 5]
Would you kindly point out which of P and Q has the smaller IC50 figure? Lab note: record the label of whichever item you select. Q
(Q: 3.44 nM, P: 19.9 nM)

====

Test system: Ba/F3 BCR-ABL cells
test: Cell proliferation analysis, Ba/F3 BCR-ABL
Assay type: cell-based
recorded conditions: Mus musculus, BaF3, 72 h; 3 days, CellTiter-Glo
quantity measured: IC50 (nM)

Field: example entries. Status: answers known.
>>> test_value("Cc1ccc(C(=O)Nc2cccc(C(F)(F)F)c2)cc1C#Cc1cnc2c(Nc3cnn(C)c3)ccnn12")
9.02
>>> test_value("Cc1cn(-c2cc(C(=O)Nc3ccc(C)c(C#Cc4cnc5c(Nc6cnn(C)c6)nccn45)c3)cc(C(F)(F)F)c2)cn1")
19.7

(1) Cc1ccc(NC(=O)c2ccc(CN3CCN(C)CC3)c(C(F)(F)F)c2)cc1C#Cc1cnc2c(Nc3cnn(C)c3)nccn12
(2) COCCn1cc(Nc2nccn3c(C#Cc4cc(NC(=O)c5cc(C(C)(C)C)on5)ccc4C)cnc23)cn1
(3) COCCn1cc(Nc2nccn3c(C#Cc4cc(NC(=O)c5cccc(C(F)(F)F)c5)ccc4C)cnc23)cn1
Arrange these 3 molecules in increasing order of IC50. Please write the labels in the order that was asked for. 3, 1, 2
